assayed_system: T1, recombinant extracellular portion of human CD4 (domains D1-4) (human, UniProt P01730 26-396, for BLI biotinylated with 3-fold molar excess of biotin-N-hydroxysuccinimide ester; not biotinylated in HDX-MS)
T1 construct: extracellular domain; also called recombinant hCD4; extracellular domain of hCD4
experiment_notes: biolayer interferometry, biotinylated hCD4 immobilized on streptavidin biosensors
Each item that follows carries a reported kon.

Some solved cases for reference:
{"binder": "CD4-Nb2 (VHH, Unlabeled, expressed in E. coli) VHH: EVQLVESGGGSVQPGGSLRLSCGASGFDVDYYAIGWFRQAPGKEREGVSCIASSDGSTYYADSVKGRFTISRDNAKNTVYLQMNSLKPEDTAVYYCAADATCPYYCSGSVCYLETGMDYWGEGTLVTVSS", "kon": "122000 M⁻¹ s⁻¹"}
{"binder": "CD4-Nb3 (VHH, Unlabeled, expressed in E. coli) VHH: HVQLVESGGGLVQPGGSLRLSCAVSGFALEYYAIGWFRQAPGKERERVACMSASGGVINYSESVKGRFTISRDNAKNTVYLQMNTLKPEDTAVYYCAAEKAYYGSSWAECYLMMDYWGKGTLVTVSS", "kon": "82000 M⁻¹ s⁻¹"}
{"binder": "CD4-Nb1 (VHH, Unlabeled, expressed in E. coli; also called non-mutated CD4-Nb1) VHH: EVQLVESGGGLVQPGGSLRLSCAASGFTFSKLAMSWHREPPGKGREWLADIDSSGDTTDYLASVKGRFTISRDNAKNTLYLQMDSLKSEDTGVYYCASREDPPGYWGQGTQVTVSS", "kon": "121000 M⁻¹ s⁻¹"}

// switching to the query binder
stdin: Could you tell me which kon is on file for CD4-Nb4 (VHH, Unlabeled, expressed in E. coli) VHH: EVQLQESGGALAQPGGSLRLSCAVSGFTFGTYGMGWLRQAPGKGREFVAAINWIHGGEIYADSVKGRFTISKDNAKNTLYLQMDSLKPEDTAVYYCAARSGTSLYTGVDEYQYWGQGTQVTVSS ?
stdout: 118000 M⁻¹ s⁻¹
